These data points were gathered from paper PMC10397247.

- Study system: T1, 4H2760-bN
- T1 chain: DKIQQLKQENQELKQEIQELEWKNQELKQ
- Protocol summary: two-hybrid library CCNG1;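 note: natural log of median RNA to DNA barcode read ratio; higher means stronger binding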
Please provide measured interaction score for the entries that follow.
One number for each entry.

Examples with their reported interaction score follow.
| Binder | interaction score |
| --- | --- |
| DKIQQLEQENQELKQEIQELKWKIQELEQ [4H2253-bN] | 0.286 |
| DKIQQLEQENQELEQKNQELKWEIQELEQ [4H2233-bN] | -0.863 |

Can you give me interaction score for all of these, one by one?
1. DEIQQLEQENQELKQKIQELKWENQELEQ [4H235-bN]
2. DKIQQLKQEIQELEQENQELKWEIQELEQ [4H2585-bN]
3. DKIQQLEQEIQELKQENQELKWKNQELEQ [4H2143-bN]
4. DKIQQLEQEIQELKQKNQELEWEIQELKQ [4H2162-bN]
5. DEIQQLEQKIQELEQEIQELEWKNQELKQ [4H264-bN]

1. 2.03
2. -1.01
3. -0.843
4. -0.495
5. -0.23
